- System: human Factor XI mRNA
- test details: Dose-dependent inhibition in cyno primary hepatocytes, electroporation (Example 6)
- Type: cell-based, cynomolgus monkey
- experimental setup: 60 nM, approx. 16 h
Record Yes whenever percent inhibition of human Factor XI mRNA is at 70% or higher; record No when lower.

These solved cases illustrate the format of a correct answer.
substance	assigned category
416925 (antisense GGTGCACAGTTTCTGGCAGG; 3-14-3 chimeric gapmer, wing sugar chemistry not given here, further chemistry not given here) [compound 416925]	No
416864 (antisense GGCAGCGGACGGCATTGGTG; 5-10-5 gapmer, wing sugar chemistry not given here, further chemistry not given here) [compound 416864]	No
416892 (antisense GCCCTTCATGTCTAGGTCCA; 3-14-3 chimeric gapmer, wing sugar chemistry not given here, further chemistry not given here) [compound 416892]	Yes
416838 (antisense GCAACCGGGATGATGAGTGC; 5-10-5 gapmer, wing sugar chemistry not given here, further chemistry not given here) [compound 416838]	No

Now for a further substance.
Item 416999 (antisense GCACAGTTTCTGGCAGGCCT; 2-13-5 gapmer, wing sugar chemistry not given here, further chemistry not given here) [compound 416999] with percent inhibition of human Factor XI mRNA of 70% or above?
No

---

- System: human Factor XI mRNA
- test details: Dose-dependent inhibition in HepG2 cells, lipofectin (Example 4)
- Format: cell-based
- experimental setup: 9.375 nM, 16 hours
In the oligonucleotide strings, read from the 5' end, every base follows the letter of its sugar. An asterisk marks phosphorothioate; unmarked linkages are phosphodiester. Other units and linkages are bracketed, terminal groups are in braces. A string of capitals states the bases alone. e = 2'-O-(2-methoxyethyl) (MOE); [5mC] = 5-methylcytosine; d = 2'-deoxy (DNA)
Each entry below carries its recorded percent inhibition of Factor XI mRNA, relative to untreated control cells.
Report the figure in % without appending any unit label.

substance	measured value
416842 (antisense eT*eG*eA*eG*eA*dT*dT*d[5mC]*dT*dT*dT*dG*dG*dG*d[5mC]*e[5mC]*eA*eT*eT*e[5mC]) [compound 416842]	18
417002 (antisense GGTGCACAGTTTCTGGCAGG; 2-13-5 gapmer, wing sugar chemistry not given here, further chemistry not given here) [compound 417002]	35
416972 (antisense eT*eA*dT*dG*d[5mC]*d[5mC]*d[5mC]*dT*dT*d[5mC]*dA*dT*dG*dT*d[5mC]*eT*eA*eG*eG*eT) [compound 416972]	32
416825 (antisense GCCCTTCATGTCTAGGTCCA; 5-10-5 gapmer, wing sugar chemistry not given here, further chemistry not given here) [compound 416825]	23

// moving on: another record for percent inhibition of Factor XI mRNA, relative to untreated control cells
Write down percent inhibition of Factor XI mRNA, relative to untreated control cells measured for item 416985 (antisense eG*e[5mC]*dA*dA*d[5mC]*d[5mC]*dG*dG*dG*dA*dT*dG*dA*dT*dG*eA*eG*eT*eG*e[5mC]) [compound 416985]
17

---

- System: human Factor XI mRNA
- test details: Dose-dependent inhibition in HepG2 cells, electroporation (Example 5)
- Type: cell-based
- experimental setup: 5000 nM, approx. 16 h, relative to untreated control cells
Each entry below carries its recorded percent inhibition of human Factor XI mRNA.
Report the figure in % without appending any unit label.

substance	measured value
416838 (antisense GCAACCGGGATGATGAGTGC; 5-10-5 gapmer, wing sugar chemistry not given here, further chemistry not given here) [compound 416838]	90

Give human Factor XI mRNA percent inhibition of human Factor XI mRNA for the following substance: 417003 (antisense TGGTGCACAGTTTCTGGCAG; 2-13-5 gapmer, wing sugar chemistry not given here, further chemistry not given here) [compound 417003]
90

Give human Factor XI mRNA percent inhibition of human Factor XI mRNA for the following substance: 416858 (antisense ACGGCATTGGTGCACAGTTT; 5-10-5 gapmer, wing sugar chemistry not given here, further chemistry not given here) [compound 416858]
89

Give human Factor XI mRNA percent inhibition of human Factor XI mRNA for the following substance: 416999 (antisense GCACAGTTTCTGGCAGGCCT; 2-13-5 gapmer, wing sugar chemistry not given here, further chemistry not given here) [compound 416999]
94

Give human Factor XI mRNA percent inhibition of human Factor XI mRNA for the following substance: 417002 (antisense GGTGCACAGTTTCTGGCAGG; 2-13-5 gapmer, wing sugar chemistry not given here, further chemistry not given here) [compound 417002]
90

Give human Factor XI mRNA percent inhibition of human Factor XI mRNA for the following substance: 416825 (antisense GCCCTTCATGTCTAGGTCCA; 5-10-5 gapmer, wing sugar chemistry not given here, further chemistry not given here) [compound 416825]
94

Give human Factor XI mRNA percent inhibition of human Factor XI mRNA for the following substance: 416826 (antisense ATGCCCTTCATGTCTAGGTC; 5-10-5 gapmer, wing sugar chemistry not given here, further chemistry not given here) [compound 416826]
92

Give human Factor XI mRNA percent inhibition of human Factor XI mRNA for the following substance: 416864 (antisense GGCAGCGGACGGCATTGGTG; 5-10-5 gapmer, wing sugar chemistry not given here, further chemistry not given here) [compound 416864]
87

Give human Factor XI mRNA percent inhibition of human Factor XI mRNA for the following substance: 416925 (antisense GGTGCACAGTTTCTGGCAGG; 3-14-3 chimeric gapmer, wing sugar chemistry not given here, further chemistry not given here) [compound 416925]
91

Give human Factor XI mRNA percent inhibition of human Factor XI mRNA for the following substance: 416850 (antisense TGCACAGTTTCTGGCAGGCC; 5-10-5 gapmer, wing sugar chemistry not given here, further chemistry not given here) [compound 416850]
90

Give human Factor XI mRNA percent inhibition of human Factor XI mRNA for the following substance: 416892 (antisense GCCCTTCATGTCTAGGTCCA; 3-14-3 chimeric gapmer, wing sugar chemistry not given here, further chemistry not given here) [compound 416892]
97

Reference source for all entries: patent US20120083522A1
